protocol_details: Plasma half-life of palonosetron
Format: in vivo
experimental_setup: human
measurement_type: half-life

// field: half-life; key: Cl.O=C1c2cccc3c2[C@H](CCC3)CN1[C@@H]1CN2CCC1CC2 ; value = ~40 h
